src = paper PMC7079967

Tested on: Parainfluenza-3 virus
test-details: Antiviral assay, virus-induced cytopathicity in Vero cells
Format: cell-based
particulars: read-out: IC50 Parainfluenza-3 virus
recorded-endpoint: IC50 (µM)
The reply should be a number in µM, with the unit left off.

Form field - read-out: IC50; system: Parainfluenza-3 virus; submitted item: NC(=O)c1ncn([C@@H]2O[C@H](CO)[C@@H](O)[C@H]2O)n1
250
